Overview of reported kon across a group of binders:
# Measured On: T1, extracellular-domain-(ECD)-comprising fragment of human CDCP1 of SEQ ID NO: 30 (human, UniProt Q9H5V8 30-663)
# T1 construct: also called CDCP1 ECD; CDCP1-ECD
# T1 sequence: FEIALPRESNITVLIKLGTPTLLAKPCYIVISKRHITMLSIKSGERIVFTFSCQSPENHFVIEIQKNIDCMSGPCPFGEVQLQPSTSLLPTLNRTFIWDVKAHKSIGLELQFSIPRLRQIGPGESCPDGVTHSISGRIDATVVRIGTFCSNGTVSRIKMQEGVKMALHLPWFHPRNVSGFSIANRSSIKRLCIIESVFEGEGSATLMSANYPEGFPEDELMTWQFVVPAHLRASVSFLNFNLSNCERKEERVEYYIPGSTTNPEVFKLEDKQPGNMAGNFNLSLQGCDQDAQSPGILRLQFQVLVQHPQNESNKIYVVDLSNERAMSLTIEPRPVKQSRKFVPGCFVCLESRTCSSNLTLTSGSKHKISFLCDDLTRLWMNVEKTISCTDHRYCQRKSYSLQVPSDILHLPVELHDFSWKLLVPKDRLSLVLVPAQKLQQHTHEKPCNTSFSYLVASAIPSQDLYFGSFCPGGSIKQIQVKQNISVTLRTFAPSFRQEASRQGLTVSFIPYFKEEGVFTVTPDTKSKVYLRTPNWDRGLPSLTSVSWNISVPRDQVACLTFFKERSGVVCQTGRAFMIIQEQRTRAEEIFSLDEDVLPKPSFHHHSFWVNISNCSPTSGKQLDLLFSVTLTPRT
# Assay Remarks: SPR (Biacore T100), antibody captured, CDCP1 ECD as analyte, 25 C, Langmuir 1:1
# Experimental: After conjugation, different anti-CDCP1 antibodies were injected at 25° C. at a flow rate of 5 μL/min, followed by a dilution series (0 nM to 1000 nM) of CDCP1 ECD at 30 μL/min. As running buffer for the binding experiment PBS/0.1% BSA was used. The chip was then regenerated with a 60s pulse of 10 mM glycine-HCl, pH 2.0 solution. Calculation of thermodynamic parameters (KD, binding constant) and kinetic parameters (kₒₙ rate, koff rate) were calculated using a Langmuir 1:1 binding model.
Could you give me the number in M⁻¹ s⁻¹? Just the number is fine.

Binder	kon (M⁻¹ s⁻¹)
Humanized CUB4 Antibody No. 91 (antibody, IgG1, V domains shown, Only variable domains are tied to the antibody; Human constant region, preferably IgG1; also called hHC4-H / hLC-a) VH: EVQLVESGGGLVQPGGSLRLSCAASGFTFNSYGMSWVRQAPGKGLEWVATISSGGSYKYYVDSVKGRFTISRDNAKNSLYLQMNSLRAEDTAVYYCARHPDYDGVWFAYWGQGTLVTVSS VL: EIVLTQSPATLSLSPGERATLSCSVSSSVFYVHWYQQKPGQAPRLLIYDTSKLASGIPARFSGSGSGTDFTLTISSLEPEDFAVYYCQQWNSNPPTFGGGTKVEIK	180000
Humanized CUB4 Antibody No. 102 (antibody, IgG1, V domains shown, Only variable domains are tied to the antibody; Human constant region, preferably IgG1; also called hHC4-H / hLC-b) VH: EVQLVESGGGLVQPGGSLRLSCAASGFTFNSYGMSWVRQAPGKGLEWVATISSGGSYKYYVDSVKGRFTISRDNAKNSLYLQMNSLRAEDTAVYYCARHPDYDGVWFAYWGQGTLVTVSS VL: EIVLTQSPATLSLSPGERATLSCSVSSSVFYVHWYQQKPGQAPRLLIYDTSKLASGIPARFSGSGSGTDYTLTISSLEPEDFAVYYCQQWNSNPPTFGGGTKVEIK	190000
Humanized CUB4 Antibody No. 47 (antibody, human IgG1, V domains shown, Only variable domains are tied to the antibody; also called humanized anti-CDCP1 antibody 47; hHC4-H / hLC-K) VH: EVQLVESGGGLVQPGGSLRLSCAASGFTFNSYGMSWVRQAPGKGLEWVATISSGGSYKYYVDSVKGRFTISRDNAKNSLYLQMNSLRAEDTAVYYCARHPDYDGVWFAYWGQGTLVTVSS VL: EIVLTQSPATLSLSPGERATLSCRASSSVFYLHWYQQKPGQAPRLWIYDTSKLASGIPARFSGSGSGTDFTLTISSLEPEDFAVYYCQQWNSNPPTFGGGTKVEIK	200000
Humanized CUB4 Antibody No. 80 (antibody, IgG1, V domains shown, Only variable domains are tied to the antibody; Human constant region, preferably IgG1; also called hHC4-H / hLC-M) VH: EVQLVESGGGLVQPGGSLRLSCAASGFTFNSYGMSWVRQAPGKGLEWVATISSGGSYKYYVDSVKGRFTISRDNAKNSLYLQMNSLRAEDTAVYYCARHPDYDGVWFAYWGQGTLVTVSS VL: EIVLTQSPATLSLSPGERATMSCGASSSVFYLHWYQQKPGLAPRLWIYDTSKLASGIPDRFSGSGSGTDFTLTISRLEPEDFAVYYCQQWNSNPPTFGGGTKVEIK	250000

Qu. # kon lookup, item Humanized CUB4 Antibody No. 135 (antibody, IgG1, V domains shown, Human constant region, preferably IgG1; also called Antibody 135; hHC4-H / hLC-e) VH: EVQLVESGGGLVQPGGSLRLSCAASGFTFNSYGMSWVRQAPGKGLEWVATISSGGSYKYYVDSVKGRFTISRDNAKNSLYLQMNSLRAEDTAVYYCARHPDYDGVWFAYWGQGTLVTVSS VL: DIQMTQSPSSLSASVGDRVTITCSVSSSVFYVHWYQQKPGKAPKLLIYDTSKLASGVPSRFSGSGSGTDFTFTISSLQPEDIATYYCQQWNSNPPTFGGGTKVEIK
Ans. 140000

Qu. # kon lookup, item Humanized CUB4 Antibody No. 69 (antibody, IgG1, V domains shown, Human constant region; also called Antibody 69; hHC4-H / hLC-L2) VH: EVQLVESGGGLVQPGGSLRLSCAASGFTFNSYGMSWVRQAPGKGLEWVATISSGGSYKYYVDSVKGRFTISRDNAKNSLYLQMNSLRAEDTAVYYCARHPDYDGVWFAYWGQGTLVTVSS VL: EIVLTQSPATLSLSPGERATMSCSVSSSVFYLHWYQQKPGQAPRLWIYDTSKLASGIPARFSGSGSGTDFTLTISSLEPEDFAVYYCQQWNSNPPTFGGGTKVEIK
Ans. 210000

Where do these numbers come from? They come from patent US20110052582A1.
